# Test system: 855422-203-R-J1-PDC complex spheroid viability;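 note: drug exposure lasted 7 days starting on day 3 after seeding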
# protocol_summary: Anticancer human tumor 855422-203-R-J1-PDC patient-derived bladder carcinoma cell line growth inhibition
# test_settings: curve of first compound; second compound 0.1 µM
pIC50: −log10 of the molar value.
Quick reference for pIC50 among some molecules

{"molecule": "O=C(C=Cc1cccc(S(=O)(=O)Nc2ccccc2)c1)NO + NC1CC1c1ccc(-c2cccc(O)c2)cc1", "bound_type": "=", "pIC50": 6.35}
{"molecule": "O=C(C=Cn1cnc(-c2cc(C(F)(F)F)cc(C(F)(F)F)c2)n1)NNc1cnccn1 + NC1CCC(NC2CC2c2ccccc2)CC1", "bound_type": "=", "pIC50": 7.46}
{"molecule": "CC1COCCN1c1cc(C2(S(C)(=N)=O)CC2)nc(-c2ccnc3[nH]ccc23)n1 (configuration not stated) + NC1CCC(NC2CC2c2ccccc2)CC1", "bound_type": "=", "pIC50": 5.26}
{"molecule": "CCN(c1cc(-c2ccc(CN3CCOCC3)cc2)cc(C(=O)NCc2c(C)cc(C)[nH]c2=O)c1C)C1CCOCC1 + NC1CC1c1ccc(-c2cccc(O)c2)cc1", "bound_type": "<", "pIC50": 5.52}
{"molecule": "COc1cc(Nc2ncc3c(n2)-c2ccc(Cl)cc2C(c2c(F)cccc2OC)=NC3)ccc1C(=O)O + NC1CCC(NC2CC2c2ccccc2)CC1", "bound_type": "<", "pIC50": 6.00}
{"molecule": "Nc1ncn(C2CC(O)C(CO)S2)c(=O)n1 (configuration not stated) + NC1CCC(NC2CC2c2ccccc2)CC1", "bound_type": "<", "pIC50": 6.52}
{"molecule": "CC(C)CC(NC(=O)C(Cc1ccccc1)NC(=O)c1cnccn1)B(O)O (configuration not stated) + NC1CC1c1ccc(-c2cccc(O)c2)cc1", "bound_type": "=", "pIC50": 9.19}
